# EXPERIMENTAL_TARGET: Mannose-6-phosphate isomerase (Homo sapiens) (UniProt P34949)
# Sequence (P34949 whole entry, looked up): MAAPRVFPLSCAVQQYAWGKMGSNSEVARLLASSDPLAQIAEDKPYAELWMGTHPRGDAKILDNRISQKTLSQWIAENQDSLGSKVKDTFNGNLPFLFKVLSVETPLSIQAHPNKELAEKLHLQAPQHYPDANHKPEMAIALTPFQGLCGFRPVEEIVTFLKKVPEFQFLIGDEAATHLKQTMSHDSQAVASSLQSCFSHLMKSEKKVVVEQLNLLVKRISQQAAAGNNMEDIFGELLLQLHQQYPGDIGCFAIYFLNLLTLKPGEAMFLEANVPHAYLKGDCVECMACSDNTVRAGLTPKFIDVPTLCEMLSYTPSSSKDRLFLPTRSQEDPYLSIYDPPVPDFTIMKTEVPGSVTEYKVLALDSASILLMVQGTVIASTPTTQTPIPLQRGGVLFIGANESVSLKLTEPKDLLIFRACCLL
# TEST_NAME: MPI inhibition at elevated mannose 6-phosphate – biochemical, fluorescence intensity, high mannose 6-phosphate, primary screen (AID 1220)
# MEASUREMENT_PARAMETERS: recombinant PMI enzyme, coupled fluorescence intensity; at 20 µM; hits give high values
Out of some 190,000 compounds screened, about 1,300 (0.68%) were called active. The sample as a whole holds a higher share of actives than the screen did.
METRIC: inhibition

Look over these answered cases.
>  <STRUCTURE>
Cc1nn(-c2ccccn2)c2c1-c1nc(N)ncc1CC2

>  <METRIC>
inhibition

>  <ASSAY_RESULT>
40.6% (inactive)

$$$$
>  <STRUCTURE>
CC1CCN(c2cc(N(C)CCO)c([N+](=O)[O-])c3nonc23)CC1

>  <METRIC>
inhibition

>  <ASSAY_RESULT>
50.7% (active)

$$$$
>  <STRUCTURE>
CC1CCN(CCOCCOc2ccc(Cl)cc2Br)CC1

>  <METRIC>
inhibition

>  <ASSAY_RESULT>
-7.9% (inactive)

$$$$

Record "Cc1nn(-c2ccc(F)cc2F)c2c1-c1nc(N3CCCC3)ncc1CC2" : what is its inhibition with Mannose-6-phosphate isomerase (Homo sapiens) (UniProt P34949)?
38.1% (inactive)

Find the measured inhibition: item "CN(CCO)c1cc(N2CCN(C(=O)c3ccco3)CC2)c2nonc2c1[N+](=O)[O-]" , target or system Mannose-6-phosphate isomerase (Homo sapiens) (UniProt P34949).
12.4% (inactive)

What inhibition appears in the records for this molecule with Mannose-6-phosphate isomerase (Homo sapiens) (UniProt P34949)? "Cc1nn(-c2ccccn2)c2c1-c1nc(N3CCOCC3)ncc1CC2"
57.5% (active)
